- EXPERIMENTAL_PROTOCOL: Intrinsic clearance in human hepatocytes
- Type: ADME, cell-based, Hepatocyte
- RECORDED_CONDITIONS: read-out: CLH
PROPERTY: CLint scaled (mL/min/kg)
One number for each entry, in mL/min/kg.

q: Please look up its CLint scaled: COc1ccc(-c2ccc(OCc3cc(C(=O)[N-]S(=O)(=O)c4ccccc4C)oc3C)cc2)nc1.[Na+] [BGC-20-1531]
a: 6.5

---

- EXPERIMENTAL_PROTOCOL: Intrinsic clearance in rat hepatocytes
- Assay type: ADME, cell-based, Hepatocyte
- RECORDED_CONDITIONS: read-out: CLH
PROPERTY: CLint scaled (mL/min/kg)
One number for each entry, in mL/min/kg.

q: Please look up its CLint scaled: `COc1ccc(-c2ccc(OCc3cc(C(=O)[N-]S(=O)(=O)c4ccccc4C)oc3C)cc2)nc1.[Na+]`
a: 2.7

---

- EXPERIMENTAL_PROTOCOL: Permeability across human Caco2 cells
- Assay type: ADME, cell-based
- RECORDED_CONDITIONS: Caco-2, read-out: permeability
PROPERTY: Papp (×10⁻⁶ cm/s)
Numbers only, in ×10⁻⁶ cm/s.

q: Please look up its Papp: `COc1ccc(-c2ccc(OCc3cc(C(=O)[N-]S(=O)(=O)c4ccccc4C)oc3C)cc2)nc1.[Na+]`
a: 14.5

---

- EXPERIMENTAL_PROTOCOL: Solubility of the compound in 0.1 M phosphate buffer/[…] KCl at pH 7.4 after 24 hrs
- Assay type: physicochemical
Give fulfilled when the value for solubility at 24 h is at least 10 µg/mL. Give not fulfilled when it is less.

Worked set:
COc1ccc(-c2ccc(OCc3cc(C(=O)NS(=O)(=O)c4ccc(C)cn4)oc3C)cc2)cc1; not fulfilled
COc1ccc(-c2ccc(OCc3cc(C(=O)NS(=O)(=O)c4c(C)noc4C)oc3C)cc2)nc1; fulfilled
COc1ccc(-c2ccc(OCc3cc(C(=O)NS(=O)(=O)c4c(C)noc4C)oc3C)cc2)c(C)c1; fulfilled
COc1ccccc1-c1ccc(OCc2cc(C(=O)NS(=O)(=O)c3ccccc3)oc2C)cc1; not fulfilled
COc1ccc(-c2ccc(OCc3cc(C(=O)NS(=O)(=O)c4ccccc4)oc3C)cc2)nc1; fulfilled
Cc1ccccc1S(=O)(=O)NC(=O)c1cc(CNc2ccc(-c3ccc(OC(F)F)cc3)cc2)c(C)o1; fulfilled

q: solubility at 24 h >= 10 µg/mL for `Cc1oc(C(=O)NS(=O)(=O)c2ccccc2)cc1COc1ccc(-c2ccccc2)cc1` ?
a: not fulfilled

---

Can you tell me solubility at 24 h for the items I'm about to list?
- EXPERIMENTAL_PROTOCOL: Solubility of the compound in 0.1 M phosphate buffer/[…] KCl at pH 7.4 after 24 hrs
- Format: physicochemical
Numbers only, in µg/mL.

COc1ccc(-c2ccc(OCc3cc(C(=O)NS(=O)(=O)c4ccc(O)cc4)oc3C)cc2)cc1; 20
COc1ccc(-c2ccc(OCc3cc(C(=O)NS(=O)(=O)c4c(C)noc4C)oc3C)cc2)cc1; 0.2
Cc1oc(C(=O)NS(=O)(=O)c2ccccc2)cc1CNc1ccc(-c2ccccc2)cc1; 300

q: Please look up its solubility at 24 h: `COc1ccc(-c2ccc(OCc3cc(C(=O)NS(=O)(=O)c4ccccc4)oc3C)cc2)cc1`
a: 11

---

- EXPERIMENTAL_PROTOCOL: Solubility of the compound in 0.1 M phosphate buffer/[…] KCl at pH 7.4 after 24 hrs
- Assay type: physicochemical
PROPERTY: solubility at 24 h

Record excerpt, results attached:
COc1ccc(-c2ccc(OCc3cc(C(=O)NS(=O)(=O)c4ccccc4C)oc3C)cc2)nc1 [BGC-20-1531 FREE BASE]; 10 µg/mL
COc1ccc(-c2ccc(OCc3cc(C(=O)NS(=O)(=O)N(C)C)oc3C)cc2)cc1; 10 µg/mL
CCCS(=O)(=O)NC(=O)c1cc(COc2ccc(-c3ccc(OC)cc3)cc2)c(C)o1; 7 µg/mL
COc1ccc(-c2ccc(OCc3cc(C(=O)NS(=O)(=O)CCCN4CCOCC4)oc3C)cc2)cc1; 20 µg/mL
Cc1oc(C(=O)NS(=O)(=O)c2ccccc2)cc1COc1ccc(-c2ccc(OC(F)F)cc2)cc1; < 0.6 µg/mL

Kindly give each listed record's solubility at 24 h.
1. Cc1ccccc1S(=O)(=O)NC(=O)c1cc(CNc2ccc(-c3ccccc3)cc2)c(C)o1
2. COc1ccc(-c2ccc(OCc3cc(C(=O)NS(=O)(=O)c4ccccc4)oc3C)cc2)c(C)c1

a:
["20 µg/mL", "20 µg/mL"]

q: Please look up its solubility at 24 h: `COc1ccc(-c2ccc(OCc3cc(C(=O)NS(=O)(=O)c4ccc(CN)cc4)oc3C)cc2)cc1`
a: < 0.6 µg/mL
